Biological target: CYP2B6 (Homo sapiens (Human))
Sequence (P20813 whole entry): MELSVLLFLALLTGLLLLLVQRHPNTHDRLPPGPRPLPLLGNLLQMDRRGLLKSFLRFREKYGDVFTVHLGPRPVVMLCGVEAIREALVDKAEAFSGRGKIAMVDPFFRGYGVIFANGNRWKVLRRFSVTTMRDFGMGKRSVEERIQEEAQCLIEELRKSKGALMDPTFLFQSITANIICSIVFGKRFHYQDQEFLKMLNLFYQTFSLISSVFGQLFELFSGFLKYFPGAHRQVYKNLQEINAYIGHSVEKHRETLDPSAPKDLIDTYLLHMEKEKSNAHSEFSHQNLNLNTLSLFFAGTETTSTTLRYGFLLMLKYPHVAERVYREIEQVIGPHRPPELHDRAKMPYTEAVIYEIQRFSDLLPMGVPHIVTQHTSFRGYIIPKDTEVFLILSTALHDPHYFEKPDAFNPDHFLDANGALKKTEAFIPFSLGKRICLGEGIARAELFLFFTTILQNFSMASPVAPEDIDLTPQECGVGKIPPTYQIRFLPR
Test: in vitro
Conditions: microsomes
Assign class by inhibition at 20 min, 10 µM: not lower than 10% means MET; lower than 10% means NOT MET.

Does Cc1n[nH]c2nc(-c3ccc(NS(=O)(=O)c4cc(Cl)ccc4F)cc3)nc(O[C@@H]3CCNCC3(F)F)c12 [Compound 44] have a reported inhibition at 20 min, 10 µM of at least 10%?
MET

Does Cc1n[nH]c2nc(-c3ccc(NS(=O)(=O)N4CCCC4)cc3)nc(OC3CCN(C(C)C)CC3)c12 [Compound 2] have a reported inhibition at 20 min, 10 µM of at least 10%?
NOT MET

Does Cc1n[nH]c2nc(-c3ccc(NS(=O)(=O)c4cc(F)ccc4F)c(Cl)c3)nc(NCCN(C)C)c12 [Compound 85] have a reported inhibition at 20 min, 10 µM of at least 10%?
NOT MET

Does Cc1n[nH]c2nc(-c3ccc(NS(=O)(=O)c4cc(C(F)(F)F)ccn4)cc3)nc(O[C@@H]3CCN(C)C[C@@H]3F)c12 [Compound 63] have a reported inhibition at 20 min, 10 µM of at least 10%?
MET

Does Cc1n[nH]c2nc(-c3ccc(NS(=O)(=O)c4cc(Cl)ccc4F)cc3)nc(O[C@@H]3CCNC[C@@H]3F)c12 [Compound 29] have a reported inhibition at 20 min, 10 µM of at least 10%?
MET

Does Cc1n[nH]c2nc(-c3ccc(NS(=O)(=O)c4cc(F)ccc4F)c(F)c3)nc(NCCN(C)C)c12 [Compound 84] have a reported inhibition at 20 min, 10 µM of at least 10%?
NOT MET

====

Experiment: in vivo
Conditions: male, CD1, mouse
Assign class by half-life: not lower than 3 h means yes; lower than 3 h means no.

Does "Cc1n[nH]c2nc(-c3ccc(NS(=O)(=O)c4cc(Cl)ccc4F)c(F)c3)nc(NCCN(C)CCO)c12" have a reported half-life of at least 3 h?
no

Does "Cc1n[nH]c2nc(-c3ccc(NS(=O)(=O)c4cc(Cl)ccc4F)cc3)nc(O[C@@H]3CCNC[C@@H]3F)c12" have a reported half-life of at least 3 h?
no

Does "Cc1n[nH]c2nc(-c3ccc(NS(=O)(=O)c4cc(Cl)ccc4F)cc3)nc(NCCN(C)CCOP(=O)(O)O)c12" have a reported half-life of at least 3 h?
yes

Does "Cc1n[nH]c2nc(-c3ccc(NS(=O)(=O)c4cc(Cl)ccc4F)cc3)nc(O[C@@H]3CCN(CCO)C[C@@H]3F)c12" have a reported half-life of at least 3 h?
yes

Does "CC(=O)OCCN(C)CCNc1nc(-c2ccc(NS(=O)(=O)c3cc(Cl)ccc3F)cc2)nc2[nH]nc(C)c12" have a reported half-life of at least 3 h?
no

Does "Cc1n[nH]c2nc(-c3ccc(NS(=O)(=O)c4cc(Cl)ccc4F)c(F)c3)nc(OC3CCN(C(C)C)CC3)c12" have a reported half-life of at least 3 h?
yes

Does "Cc1n[nH]c2nc(-c3ccc(NS(=O)(=O)c4cc(Cl)ccc4F)cc3)nc(NCCN(C)CCOC(=O)C(C)(C)C)c12" have a reported half-life of at least 3 h?
no

====

Assay: in vivo
Conditions: male, CD1, mouse, po, 30 mg/kg
I'd appreciate it if you could supply Cmax values for the items below.
Number only, in ng/mL; omit the unit.

For reference, reported Cmax for "Cc1n[nH]c2nc(-c3ccc(NS(=O)(=O)c4cc(Cl)ccc4F)cc3)nc(O[C@@H]3CCN(CCO)C[C@@H]3F)c12" stands at 54.9

For reference, reported Cmax for "Cc1n[nH]c2nc(-c3ccc(NS(=O)(=O)c4cc(Cl)ccc4F)cc3)nc(NCCN(C)CCO)c12" stands at 37.9

For reference, reported Cmax for "Cc1n[nH]c2nc(-c3ccc(NS(=O)(=O)c4cc(OC(C)C)ccn4)cc3)nc(NCCN(C)C)c12" stands at 143

For reference, reported Cmax for "Cc1n[nH]c2nc(-c3ccc(NS(=O)(=O)c4cc(Cl)ccc4F)cc3)nc(NCCN(C)CCOP(=O)(O)O)c12" stands at 14.5

For reference, reported Cmax for "COc1ccncc1S(=O)(=O)Nc1ccc(-c2nc(NCCN(C)C)c3c(C)n[nH]c3n2)cc1" stands at 9.3

For reference, reported Cmax for "Cc1n[nH]c2nc(-c3ccc(NS(=O)(=O)c4cc(C(F)(F)F)ccn4)cc3)nc(O[C@@H]3CCN(C)C[C@@H]3F)c12" stands at 1120

For reference, reported Cmax for "Cc1n[nH]c2nc(-c3ccc(NS(=O)(=O)c4cc(C(F)(F)F)ccn4)cc3)nc(NCCN(C)C)c12" stands at 548

====

Test system: hERG / SGK1 (whole cell)
Output label 1 for records whose hERG/IC50 is lower than 20, label 0 for records at or above 20.

Does "Cc1n[nH]c2nc(-c3ccc(NS(=O)(=O)c4cc(F)ccc4F)c(F)c3)nc(NCCN(C)C)c12" have hERG/IC50 strictly under 20?
label 0

Does "Cc1n[nH]c2nc(-c3ccc(NS(=O)(=O)c4cc(Cl)ccc4F)cc3)nc(NCCN(C)CCO)c12" have hERG/IC50 strictly under 20?
label 0

Does "Cc1n[nH]c2nc(-c3ccc(NS(=O)(=O)c4ccncc4F)cc3)nc(NCCN(C)C)c12" have hERG/IC50 strictly under 20?
label 1

Does "COc1ccncc1S(=O)(=O)Nc1ccc(-c2nc(NCCN(C)C)c3c(C)n[nH]c3n2)cc1" have hERG/IC50 strictly under 20?
label 1

Does "Cc1n[nH]c2nc(-c3ccc(NS(=O)(=O)c4cc(Cl)ccc4F)cc3)nc(O[C@@H]3CCNC[C@@H]3F)c12" have hERG/IC50 strictly under 20?
label 0

Does "Cc1n[nH]c2nc(-c3ccc(NS(=O)(=O)c4cccnc4)cc3)nc(NCCN(C)C)c12" have hERG/IC50 strictly under 20?
label 1

Does "Cc1n[nH]c2nc(-c3ccc(NS(=O)(=O)c4cc(F)ccc4F)c(Cl)c3)nc(NCCN(C)C)c12" have hERG/IC50 strictly under 20?
label 0

Does "Cc1n[nH]c2nc(-c3ccc(NS(=O)(=O)c4cc(Cl)ccc4F)c(Cl)c3)nc(NCCN(C)CCO)c12" have hERG/IC50 strictly under 20?
label 0

Does "COc1ccnc(S(=O)(=O)Nc2ccc(-c3nc(NCCN(C)C)c4c(C)n[nH]c4n3)cc2)c1" have hERG/IC50 strictly under 20?
label 0

Does "Cc1n[nH]c2nc(-c3ccc(NS(=O)(=O)c4ccccn4)cc3)nc(NCCN(C)C)c12" have hERG/IC50 strictly under 20?
label 0

====

I'd appreciate it if you could supply bioavailability values for the items below.
Experiment: in vivo
Settings: male, CD1, mouse, po, 30 mg/kg
Number only, in %; omit the unit.

For reference, reported bioavailability for Cc1n[nH]c2nc(-c3ccc(NS(=O)(=O)c4ccccn4)cc3)nc(NCCN(C)C)c12 [Compound 24] stands at 1.55

For reference, reported bioavailability for COc1ccc(F)c(S(=O)(=O)Nc2ccc(-c3nc(NCCN(C)CCO)c4c(C)n[nH]c4n3)cc2)c1 [Compound 77] stands at 0.75

For reference, reported bioavailability for Cc1n[nH]c2nc(-c3ccc(NS(=O)(=O)c4cc(Cl)ccc4F)c(F)c3)nc(NCCN(C)CCO)c12 [Compound 78] stands at 4.9

For reference, reported bioavailability for Cc1n[nH]c2nc(-c3ccc(NS(=O)(=O)c4cc(Cl)ccc4F)cc3)nc(NCCN(C)CCOP(=O)(O)O)c12 [Compound 88] stands at 1.6

For reference, reported bioavailability for CC(=O)OCCN(C)CCNc1nc(-c2ccc(NS(=O)(=O)c3cc(Cl)ccc3F)cc2)nc2[nH]nc(C)c12 [Compound 87] stands at 7.5

For reference, reported bioavailability for Cc1n[nH]c2nc(-c3ccc(NS(=O)(=O)c4cc(Cl)ccc4F)cc3)nc(O[C@@H]3CCNC[C@@H]3F)c12 [Compound 29] stands at 8

====

Assay: physchem
Details: 25 °C, pH 7.4, aqueous buffer, kinetic from dmso stock
Assign class by solubility at 2 h: not lower than 3 µM means Met; lower than 3 µM means Not met.

Does "Cc1n[nH]c2nc(-c3ccc(NS(=O)(=O)c4ccccn4)cc3)nc(NCCN(C)CCO)c12" have a reported solubility at 2 h of at least 3 µM?
Met

Does "Cc1n[nH]c2nc(-c3ccc(NS(=O)(=O)c4cc(OC(C)C)ccn4)cc3)nc(NCCN(C)C)c12" have a reported solubility at 2 h of at least 3 µM?
Met

Does "Cc1n[nH]c2nc(-c3ccc(NS(=O)(=O)c4cc(Cl)ccc4F)cc3)nc(OC3CCNCC3)c12" have a reported solubility at 2 h of at least 3 µM?
Not met

Does "Cc1n[nH]c2nc(-c3ccc(NS(=O)(=O)c4ccccn4)cc3)nc(NCCN(C)C)c12" have a reported solubility at 2 h of at least 3 µM?
Met

Does "Cc1n[nH]c2nc(-c3ccc(NS(=O)(=O)c4cc(C(F)(F)F)ccn4)cc3)nc(O[C@@H]3CCN(C)C[C@@H]3F)c12" have a reported solubility at 2 h of at least 3 µM?
Not met

Does "Cc1n[nH]c2nc(-c3ccc(NS(=O)(=O)c4cc(Cl)ccc4F)c(F)c3)nc(NCCN(C)CCO)c12" have a reported solubility at 2 h of at least 3 µM?
Met
